Target: Human TRPV3 (Homo sapiens)
Construct: expressed in transfected cells; host or cells: CHO cells (selected with G-418)
Sequence (Q8NET8 whole entry): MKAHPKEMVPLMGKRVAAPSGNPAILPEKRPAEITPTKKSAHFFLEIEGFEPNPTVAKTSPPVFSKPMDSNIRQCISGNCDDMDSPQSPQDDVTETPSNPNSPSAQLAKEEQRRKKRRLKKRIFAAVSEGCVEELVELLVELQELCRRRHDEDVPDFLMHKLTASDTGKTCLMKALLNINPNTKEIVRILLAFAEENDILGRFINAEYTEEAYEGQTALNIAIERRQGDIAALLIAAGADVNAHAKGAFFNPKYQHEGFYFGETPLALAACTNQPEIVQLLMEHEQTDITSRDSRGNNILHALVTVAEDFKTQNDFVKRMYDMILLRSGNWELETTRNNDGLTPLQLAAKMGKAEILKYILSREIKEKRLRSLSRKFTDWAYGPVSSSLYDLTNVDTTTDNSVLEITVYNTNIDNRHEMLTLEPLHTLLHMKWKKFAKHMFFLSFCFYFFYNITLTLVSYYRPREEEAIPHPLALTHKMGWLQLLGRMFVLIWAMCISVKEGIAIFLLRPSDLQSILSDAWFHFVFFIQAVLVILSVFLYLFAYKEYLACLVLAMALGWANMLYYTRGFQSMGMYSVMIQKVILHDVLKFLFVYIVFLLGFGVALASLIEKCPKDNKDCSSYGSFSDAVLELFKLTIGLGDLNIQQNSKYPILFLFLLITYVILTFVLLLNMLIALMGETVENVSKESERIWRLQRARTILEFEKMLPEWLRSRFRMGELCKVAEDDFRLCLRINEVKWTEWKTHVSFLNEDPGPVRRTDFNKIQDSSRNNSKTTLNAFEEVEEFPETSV
Assay: Screening for TRPV3 antagonist using the 45Calcium uptake assay (inhibition of 2-APB induced cellular uptake of radioactive calcium)
Assay type: cell-based
Settings: CHO, 1.0 μM test compound; Human TRPV3 expressing CHO cells; 2-APB 500 μM; read-out: Percentage inhibition at 1.0 μM
Counter-ions that a name gives are not always drawn.
MEASURE_NAME: inhibition at 1 µM (%)

INSERT INTO assay_data (molecule, measure_name, measured_number) VALUES
  ('COc1cccc(/C=C/c2nc3ccccn3c(=O)c2-c2ccc(C(F)(F)F)cc2)c1OC1CCCC1 [Example 23]', 'inhibition at 1 µM', 62.8),
  ('COc1cccc(/C=C/c2nc3ccccn3c(=O)c2-c2ccc(NC(C)=O)cc2)c1OC1CCCC1 [Example 32]', 'inhibition at 1 µM', 34.2),
  ('COc1cccc(/C=C/c2nc3ccccn3c(=O)c2-c2ccc3c(c2)OCO3)c1OC1CCCC1 [Example 37]', 'inhibition at 1 µM', 70.1),
  ('O=c1c(-c2ccccc2)c(/C=C/c2ccc(Cl)cc2)nc2ccccn12 [Example 1]', 'inhibition at 1 µM', 0.5),
  ('CCCOc1c(/C=C/c2nc3ccccn3c(=O)c2-c2ccc(C(F)(F)F)cc2)cccc1OC [Example 6]', 'inhibition at 1 µM', 71.5),
  ('COc1cccc(/C=C/c2nc3ccccn3c(=O)c2-c2ccc(C#N)cc2)c1OCC1CC1 [Example 19]', 'inhibition at 1 µM', 87.8),
  ('COc1cccc(/C=C/c2nc3c(C)cccn3c(=O)c2-c2ccc(C(F)(F)F)cc2)c1OC1CCCC1 [Example 40]', 'inhibition at 1 µM', 23.1),
  ('COc1cccc(/C=C/c2nc3ccccn3c(=O)c2-c2ccccc2)c1OC1CCCC1 [Example 20]', 'inhibition at 1 µM', 45.9),
  ('COc1cccc(/C=C/c2nc3ccccn3c(=O)c2-c2ccc(C(F)(F)F)cc2)c1OCCN(C)C [Example 15, hydrochloride]', 'inhibition at 1 µM', 0),
  ('O=c1c(-c2ccc(C(F)(F)F)cc2)c(/C=C/c2cccnc2)nc2ccccn12 [Example 2]', 'inhibition at 1 µM', 5.7),
  ('CCCCOc1c(/C=C/c2nc3ccccn3c(=O)c2-c2ccc(C#N)cc2)cccc1OC [Example 10]', 'inhibition at 1 µM', 82.8),
  ('CCCCCCOc1c(/C=C/c2nc3ccccn3c(=O)c2-c2ccc(C(F)(F)F)cc2)cccc1OC [Example 13]', 'inhibition at 1 µM', 58),
  ('COc1cccc(/C=C/c2nc3ccc(Cl)cn3c(=O)c2-c2ccc(C#N)cc2)c1OC1CCCC1 [Example 43]', 'inhibition at 1 µM', 78.7);

Origin of the recorded values: patent US8349846B2
